// reported PGI d5 (relative PGI release) for each item listed
System: E. multilocularis metacestode vesicles
Experiment: Phosphoglucose isomerase (PGI) release assay (damage-marker release) on metacestode vesicles
Assay type: cell-based, Echinococcus multilocularis
Details: overview screen, 10 μM, singlets, 5 days, relative to 0.1 % Triton X-100, DMSO subtracted
Kindly answer with a numeric value in %, unit omitted.

Use the examples below as a reference point.
# Compound, PGI d5 (relative PGI release) / %
data = [
    ("NC(N)=NCCCCC(=O)Nc1cc(C(F)(F)F)cc(NC(=O)c2cc(C(=O)Nc3cc(C(F)(F)F)cc(NC(=O)CCCCN=C(N)N)c3O[C@@H]3CCNC3)ncn2)c1O[C@@H]1CCNC1 [MMV1634402]", -1.176),
    ("Cc1cccc(C)c1C(=O)Nc1nc(-c2ccccn2)cc2ccccc12 [MMV1581558]", 1.519),
    ("COc1cc(NS(=O)(=O)c2ccc(C)cc2)c2ncccc2c1 [MMV098836]", -0.2103),
    ("O=C(NCc1ncc(C(F)(F)F)cc1Cl)c1c(Cl)cccc1Cl [MMV689401]", -2.654),
    ("CC(C)(C)c1cccc(-c2nc3cc(C(=N)N)ccc3[nH]2)c1O [MMV1581548]", -1.312),
    ("COc1ccc(NC(=O)c2cc3ccccn3n2)cc1 [MMV374187]", 0.2305),
    ("CC(C)Oc1ccc(-n2cnc3cc(/C=C\\c4ccc(C(C)(C)O)cc4)ccc32)cc1 [MMV1782350]", -0.1916),
    ("CCC(CC)[C@H](NC(C)=O)[C@@H]1[C@H](O)[C@@H](C(=O)O)C[C@H]1NC(=N)N [MMV1593511]", 0.2364),
]

Req: Which PGI d5 (relative PGI release) is listed for CS(=O)(=O)c1ccc(Oc2ccc(Cl)cc2)cc1 [MMV1634404] ?
Resp: -0.3308

Req: // next record CCc1nc(N)nc(N)c1C#CCc1ccccc1 [MMV1581549]
Resp: -0.3014

Req: Also check COc1ccc(C2CNC(=O)C2)cc1OC1CCCC1 (stereo not shown) [MMV003738]
Resp: -0.5058

Req: Same lookup for Nc1nc(N)c2c(Sc3ccccc3)cccc2n1 [MMV021759] , please.
Resp: -5.79

Req: What would you report for CC(C)(C)OC(=O)NCc1ccc(C(=O)N[C@H]2CCOC2=O)cc1 [MMV1581547] ?
Resp: -1.162
